Please respond with reported growth for every item in the list.
Tested on: HCC-2998 colon
PROCEDURE TEXT: NCI-60 one-dose screen, 48 h (100 = growth as untreated, 0 = no growth, -100 = all killed)
PARTICULARS: 10 µM unless noted
About 83,000 compounds went through this panel and 20% of them were active in at least one assay; those are over-represented in the sample as a whole. The source made the active and inactive calls. Rule for the calls: active = growth percent below 10; inactive = the rest.

Which growth is listed for CCCCCCCC/C=C\CCCCCCCCOc1ccccc1CC(=O)NCC[N+](C)(C)C ?
33.7% (inactive)

Which growth value is on record for COc1ccc(N=Nc2ccc(O)c(=O)cc2)cc1 ?
36.2% (inactive)

# input compound: CCCc1cc2c(=O)c(C(=O)OC)c[nH]c2cc1N(CC)CC ; wanted: its growth
104% (inactive)

Would you mind telling me what growth value was observed for C=C1C(=O)O[C@H]2[C@H]1CC/C(COC(=O)C(=O)c1cn(C)c3ccc(OC)cc13)=C\CC[C@@]1(C)O[C@@H]21 ?
-65.3% (active)

====

Exercise: state measured growth for each of the compounds provided.
System: SK-MEL-5 melanoma
PROCEDURE TEXT: NCI-60 one-dose screen, 48 h (100 = growth as untreated, 0 = no growth, -100 = all killed)
PARTICULARS: 10 µM unless noted
About 83,000 compounds went through this panel and 20% of them were active in at least one assay; those are over-represented in the sample as a whole.
Numbers only; they are read as %.

Query: growth; subject: COc1cc2nc(Cl)nc(Nc3ccc(S(=O)(=O)Nc4nccs4)cc3)c2cc1OC
102

Which growth value belongs to O=C(/C=C/c1ccc(Cl)nc1)c1ccc(Cl)cc1Cl ?
99.5

Consider the compound shown here: O=c1[nH]c2ccccc2n1C1CCN(CCOc2ccccc2)CC1 What is its recorded growth?
95.6

Any idea what growth was measured for Cn1c(=O)c2c(nc(Cl)n2CCl)n(C)c1=O ?
88.1

====

System: MDA-MB-231 breast
PROCEDURE TEXT: NCI-60 one-dose screen, 48 h
PARTICULARS: 10 µM unless noted
About 83,000 compounds went through this panel and 20% of them were active in at least one assay; those are over-represented in the sample as a whole. The source made the active and inactive calls. The calls were made as follows: active = growth percent below 10; inactive = the rest.
Just give me one of these, please: TRUE for active, FALSE for inactive

Kindly provide the recorded test outcome for the following molecule: Cc1cc[c-]cc1.Fc1c[c-]c(-c2ccccn2)c(F)c1.[Pt+2].c1ccc(P(C[PH+](c2ccccc2)c2ccccc2)c2ccccc2)cc1
TRUE

I would be grateful if you could indicate the recorded call for Cc1cc(NCc2cc(Nc3ccnc4cc(Cl)ccc34)ccc2F)nc(N2CCOCC2)n1 .
FALSE

GET /call?item= N#Cc1c2c(nn(-c3ccccc3)c1=O)C(O)=C([N+](=O)[O-])C(c1ccccc1)C2 (stereo not given) returns the recorded outcome of this test.
FALSE

Hi, sorry to bother you, what did the test record for CC(C)C(NC(=O)C1(NC(=O)OCc2ccccc2)CCCC1)C(=O)O (stereo not given) ?
FALSE

What call does the record list for C=CCn1c(C)nc2cc(Nc3nc(N4CCCC4)nc4ccccc34)ccc21 ?
FALSE

How did this test come out for CCOc1ccccc1-n1c(CN2CCN(C(=O)COc3ccc(CNCCCCCCN4C5CCCC4CC(OC(=O)Nc4cc(C)ccc4OC)C5)cc3)CC2)nc2ccccc2c1=O (stereo not given) ?
TRUE

Identify the outcome logged in this assay for the molecule shown: N#Cc1c(-c2ccccn2)[nH]c(=S)[nH]c1=O
FALSE

Which result was noted for this molecule in the test: COc1ccc2[nH]c(O)c(/C=c3/cc4c(c(-c5cc(OC)c(OC)c(OC)c5)n3)=Nc3ccccc3-4)c2c1
FALSE

What did this assay record as the result for CC(C)C(=O)Nc1n[nH]c2cc(-c3cccc(NS(=O)(=O)C4CC4)c3)ccc12 ?
FALSE

Query: recorded result category for CC1CC(C(C)(C)C)C(=O)C(C(C)(C)C)C1 (stereo not given) in this test
FALSE

# fetch the recorded call for C[n+]1cccc(CC(=O)NO)c1 here
FALSE

How did this test come out for C#CCOc1nc(C)cc(C)c1C#N ?
FALSE

Write down the call the test reported for this molecule. Item: N#Cc1c(N)nc(NCCO)nc1-c1ccc(F)cc1
FALSE

Could you check what this test reported for CCN(CC)c1nc(SCC(=O)Nc2nc3ccc(C)cc3s2)nc(-c2ccccc2)c1C#N ?
FALSE

Please state the recorded outcome for this molecule: COc1cc(-c2nc(N3CCN(C)CC3)c3ccccc3n2)cc(OC)c1OC
FALSE

Name the outcome recorded for COc1ccc(N2CCN(c3nc(-c4cc(OC)c(OC)c(OC)c4)nc4ccccc34)CC2)cc1 in the assay.
FALSE

Per the records of this test, what outcome belongs to N#Cc1nc(C#N)c(Sc2ccccc2)c(Sc2ccccc2)c1Sc1ccccc1 ?
TRUE

Tell me the recorded outcome of this test for O=C(NCCCNc1cc(-c2cn(-c3ccccc3)nc2-c2cccc(O)c2)ccn1)c1cccc(O)c1 .
FALSE

Query: recorded result category for O=C(CSc1nnc(-c2ccc(NC(=O)c3cccnc3)cc2)o1)N[C@@H](Cc1ccc(O)cc1)C(=O)O in this test
FALSE

For O=c1ssc(Cl)c1-c1ccccc1 , what call appears in the results of this test?
FALSE

Per the assay record, what outcome was assigned to COc1ccc(NC(=O)CSc2nc(C)c(C(C)=O)n2-c2ccc([N+](=O)[O-])cc2)cc1 ?
FALSE

Hi team, can someone confirm the assay call for CCN(CCNc1ccc(C)c2sc3ccccc3c(=O)c12)CC(C)(C)O ?
FALSE

Fill in: this test's call for O=C(c1ccccc1)c1c(/C=C/c2ccc(Cl)cc2)nc2ccccc2c1/C=C/c1cccs1 is ___
FALSE

Could you check what this test reported for Cc1cc(NCc2cc(Nc3ccnc4cc(Cl)ccc34)ccc2F)nc(N2CCCC2)n1 ?
TRUE

Assay outcome for O=C1/C(=C\c2c[nH]c3ccccc23)c2ccccc2N1c1c(Cl)cccc1Cl : what was it?
TRUE

Assay outcome for C=CCNc1nc(NN2C(=O)c3cccc4cccc(c34)C2=O)nc(-n2cnc3ccccc32)n1 : what was it?
FALSE

Entry COc1ccc(-c2cc(-c3ccc(Nc4nc(Nc5ccc(Cl)cc5)nc(Nc5ccc(Cl)cc5)n4)cc3)nc(N)c2C#N)cc1 : call = ?
TRUE

Entry COc1ccc(-c2csc(C3=C(O)CN(CCCN4CCCC4=O)C3=N)n2)cc1OC : call = ?
FALSE

Called result for COc1ccc2[nH]c(O)c(C(=Nc3ccc(N(C)C(=O)CN4CCN(C)CC4)cc3)c3ccccc3)c2c1
FALSE

Recorded test outcome, item Cc1ccc2nc(C)c(-c3nnc(SCc4ccc(C#N)cc4)o3)n2c1
FALSE

====

Tested on: EKVX NSCLC
PROCEDURE TEXT: NCI-60 one-dose screen, 48 h (100 = growth as untreated, 0 = no growth, -100 = all killed)
PARTICULARS: 10 µM unless noted
This is part of a sample that, as a whole, favours compounds with a hit. Of some 83,000 tested, about 20% had one in any assay.
Returns one of Y or N; Y when growth is >= 80%.

# bool: growth of O=[N+]([O-])c1ccc(N2c3ccncc3Sc3ccncc32)cc1 >= 80%
Y

For this molecule, is measured growth 80% or higher? CCc1ccccc1-n1c(-c2ccc(Cl)cc2)cc(-c2ccc(Cl)cc2)c(C#N)c1=O
Y

Quick check, growth >= 80%? COc1ccc(C(=O)COc2ccc(/C=C3\Oc4ccccc4C3=O)cc2)cc1
Y

Check the entry C=CCOC1=CC(=O)c2ccccc2C1=O : does growth equal or exceed 80%?
Y

For this molecule, is measured growth 80% or higher? COc1cc2ncn3c(=O)c4c5c(sc4nc3c2cc1OC)CCCC5
Y

Exam item: decide whether the reported growth for COc1cc(OC)cc(C2CC(=O)Nc3c2c(C)nn3-c2nc3ccccc3[nH]2)c1 (stereo unspecified) is at least 80%.
N

Has COc1ccc(-c2nc(SCCC(C)C)nc(N/N=C\c3cccc(Cl)c3)c2C#N)cc1 a recorded growth greater than or equal to 80%?
N

I'd appreciate it if you could say whether CCN(CC)c1ccc(C(=O)c2ccc(N(CC)CC)cc2)cc1 has growth at least equal to 80%.
N

State whether the measured growth reaches 80%, counting equality as reaching it, for CCN1CCN(c2cc(C)nc(NCc3cc(Nc4ccnc5cc(Cl)ccc45)ccc3F)n2)CC1
N

Textbook exercise: given the entry NC(=S)Nc1cccc(O)c1 , state whether its growth is greater than or equal to 80%.
Y

Given N=c1sc(Cc2ccc(Cl)cc2)cn1CC(=O)c1ccc(F)cc1 , state whether its growth is at least 80%.
N

Quick check: does CN(Cc1cnc2nc(N)nc(N)c2n1)c1ccc(C(=O)N[C@@H](CCc2nn[nH]n2)c2nn[nH]n2)cc1 have growth greater than or equal to 80%?
Y

Kindly determine if growth recorded for O=C(Nc1ccc(Nc2ccncc2)cc1)c1ccc(C(=O)Nc2ccc(Nc3ccncc3)cc2)cc1 is above or exactly 80%.
Y

Could you verify whether the entry CCN(CCNc1ccc(C)c2sc3ccccc3c(=O)c12)CC(C)(C)O shows growth of no less than 80%?
Y

Answer whether growth of C=CCn1c(C)nc2cc(Nc3nc(N4CCCC4)nc4ccccc34)ccc21 is greater than or equal to 80%.
Y

Exam item: decide whether the reported growth for COc1ccc(NC(=O)CSc2nc(C)c(C(C)=O)n2-c2ccc(Cl)cc2)cc1 is at least 80%.
Y

hey, is growth for this one >= 80%? COc1ccc(C2=NN(C(=O)c3cc(OC)c(OC)c(OC)c3)C(c3ccc(Cl)cc3)C2)cc1OC (stereo unspecified)
N

I'd appreciate it if you could say whether O=C1CCC2=C3C4CCCCC4C(=O)C4CCCC(OC2C1)C34 (stereo unspecified) has growth at least equal to 80%.
Y

Determine whether this molecule has growth no lower than 80%: c1coc(-c2c3ccc(=[N+]4CCCCC4)cc-3oc3cc(N4CCCCC4)ccc23)c1
N

State whether the measured growth reaches 80%, counting equality as reaching it, for O=Cc1c[nH]c2ccc(-c3csc4ccccc34)cc12
N

Check if growth >= 80% (inclusive). Item: Cc1nn(-c2ccccc2)c(Oc2ccc(Cl)cc2)c1/C=N\N=c1/sc2ccccc2n1C
Y

Answer whether growth of N#C/C(=C\c1ccc2c(c1)OCO2)n1nnc2cc(F)c(F)cc21 is greater than or equal to 80%.
Y

Does growth meet or surpass 80% for CCOc1c(C#N)nnc2c(C#N)c(NC(=O)c3ccccc3)nn12 ?
Y

Would you say Cc1cc(Cl)ccc1Nc1nc(C(F)(F)F)ccc1C(=O)N/N=C/c1ccc(N(C)C)cc1 shows growth at minimum 80%?
N

// inclusive: growth at least 80%? input: Cc1cccc(NC(=O)N/C(N)=N/c2nc(C)c(C)s2)c1
N

Given the entry S=C(c1ccc2c(c1)OCO2)N1CCN(c2ccccc2Cl)CC1 , answer whether its growth meets or surpasses 80%.
Y
